target: von Willebrand factor full length (Homo sapiens, UniProt P04275 SEQ:764-2813); assay: filter; 22.6% bound at 100 nM vWF; details: tags: Calbiochem 681300; label: 5'-32P
pKd: −log10 of the molar value.
PROPERTY MEASURED: pKd

In [3]: df
Out[3]:
                                     binder  property_measured  readout_number
0  CGUGCAGUGCCUUCGGCCGTGCGGTGCCUCCGUCACG (mixed, 2'-OMe/deoxy composite, single PS, 3'-idT) [ARC1529]                pKd            7.91
